Just for reference, patent US20250154277A1 is where these values come from.

assayed_target: T1, human 5T4-His protein (human, UniProt Q13641 32-355)
T1 construct: also called recombinant 5T4 protein (human 5T4-his tag); human 5T4 protein; not shown: His tag
T1 sequence (looked up): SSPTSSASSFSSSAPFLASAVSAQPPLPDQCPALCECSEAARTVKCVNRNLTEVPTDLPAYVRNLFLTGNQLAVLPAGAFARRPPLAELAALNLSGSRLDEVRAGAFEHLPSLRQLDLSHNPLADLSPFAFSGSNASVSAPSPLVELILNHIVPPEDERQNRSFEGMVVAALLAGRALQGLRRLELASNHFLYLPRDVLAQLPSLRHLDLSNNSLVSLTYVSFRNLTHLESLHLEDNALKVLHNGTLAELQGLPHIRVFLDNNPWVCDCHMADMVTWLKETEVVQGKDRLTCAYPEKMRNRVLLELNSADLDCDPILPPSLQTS
run_description: ELISA, coated 5T4-His
The binders listed here are annotated with their pEC50.
# pEC50: negative log10 of molar concentration; output just the value

Reference set (2 entries):
binder	readout_number
393E9_hVH4_hVL2 (antibody, V domains shown, humanized) VH: EVQLVESGGGLVQPGGSLRLSCAASGFTFTDYYMSWVRQAPGKGLEWVGFIRNKGNGYTTENSASVKGRFTISRDNSKSSLYLQMNSLKTEDTAVYYCARYRGNPHYAMDYWGQGTLVTVSS VL: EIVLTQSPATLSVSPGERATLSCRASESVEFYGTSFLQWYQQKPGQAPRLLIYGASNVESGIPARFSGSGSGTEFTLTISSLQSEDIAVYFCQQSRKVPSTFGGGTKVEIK	9.92
393E9_hVH4_hVL1 (antibody, V domains shown, humanized) VH: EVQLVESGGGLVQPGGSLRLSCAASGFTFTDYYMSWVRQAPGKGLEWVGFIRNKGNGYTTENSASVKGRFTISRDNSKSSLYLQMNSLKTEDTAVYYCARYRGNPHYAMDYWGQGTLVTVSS VL: DIVLTQSPDSLAVSLGERATINCRASESVEFYGTSFLQWYQQKPGQPPKLLIYGASNVESGVPDRFSGSGSGTDFTLTISSLQAEDIAVYFCQQSRKVPSTFGGGTKVEIK	9.89

# ---- query binder ----
Incoming: So what's the measured pEC50 for this one? 393E9_hVH1_hVL2 (antibody, V domains shown, humanized) VH: EVQLVESGGGLVQPGGSLRLSCAASGFTFTDYYMSWVRQAPGKGLEWVGFIRNKGNGYTTENSASVKGRFTISRDNSKSTLYLQMNSLRAEDTAVYYCARYRGNPHYAMDYWGQGTLVTVSS VL: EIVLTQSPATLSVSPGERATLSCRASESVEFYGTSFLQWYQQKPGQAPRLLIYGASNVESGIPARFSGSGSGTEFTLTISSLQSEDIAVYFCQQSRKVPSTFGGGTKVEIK
Outgoing: 9.80
